# Test system: porcine respiratory coronavirus (PRCV) strain AR310
# procedure_details: PRCV plaque assay in ST cells
# Format: cell-based
# condition_label: Alphacoronavirus 1; PRCV plaques in ST cells
measurement_type: EC50
Answer with the figure and its unit, nothing else.

Examples from the recorded data:
NC(N)=NC(=O)c1nc(Cl)c(N2CCCCCC2)nc1N [5-(N,N-hexamethylene)amiloride]	0.06 µM
N=C(NC(=O)CCc1ccccc1)Nc1ccccc1 [N-(3-phenylpropanoyl)-N′-phenylguanidine]	19 µM
N=C(N)NC(=O)/C=C/c1cccc2ccccc12 [trans-3-(1-napthyl)acryloylguanidine]	19.1 µM

Moving on to another molecule below.
Query: // Input: COc1ccc2cc(C(=O)NC(=N)N)ccc2c1 [6-methoxy-2-naphthoylguanidine] . Output its EC50 only.
Result: 0.04 µM

----------
# Tested on: HIV
# Type: cell-based
# condition_label: Table 19b; yes/no
measurement_type: At least 1x log reduction seen in p24 assay?

In the examples that follow, each entry is paired with its recorded At least 1x log reduction seen in p24 assay?.
N=C(N)NC(=O)/C=C/c1cccc2ccccc12 [trans-3-(1-napthyl)acryloylguanidine]	yes
NC(N)=NC(=O)/C=C/C=C/c1ccccc1	no
N=C(N)NC(=O)c1ccc(-c2ccccc2)cc1	no
N=C(N)NC(=O)/C=C/c1cccc(C(F)(F)F)c1	yes

Query: Input `N=C(N)NC(=O)Cc1ccc2ccccc2c1` , output reported At least 1x log reduction seen in p24 assay?.
Result: no

Query: // Input: `Cc1cccc(/C=C/C(=O)NC(=N)N)c1` . Output its At least 1x log reduction seen in p24 assay? only.
Result: yes

Query: Check the records and state At least 1x log reduction seen in p24 assay? for `COc1ccc2cc(C(=O)NC(=N)N)ccc2c1`
Result: yes

Query: Provide only the value of recorded At least 1x log reduction seen in p24 assay? for `N=C(NC(=O)CCc1ccccc1)Nc1ccccc1`
Result: no

----------
# subject_of_test: 229E-CoV E-protein (Human coronavirus 229E, UniProt P19741)
# Sequence (P19741 whole entry): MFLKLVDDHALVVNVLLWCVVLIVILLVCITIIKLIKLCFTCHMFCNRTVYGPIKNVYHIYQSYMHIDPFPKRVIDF
# procedure_details: Bacterial bio-assay for 229E-CoV E-protein
# condition_label: halo of growth score; E. coli expressing E protein at 37° C.
Under this convention, 1 denotes 229E E protein Inhibition (score) strictly below 2 score and -1 denotes 229E E protein Inhibition (score) at or above 2 score.

NC(N)=NC(=O)/C=C/c1ccccc1	1
N=C(N)NC(=O)/C=C/c1cccc(C2=CCCCC2)c1	-1
N=C(N)NC(=O)/C=C/C=C/c1cccc(Br)c1	1
COc1ccc(/C=C/C(=O)NC(=N)N)cc1	1

Query: Threshold test, 229E E protein Inhibition (score) < 2 score: `COc1cc(/C=C/C(=O)NC(=N)N)cc(OC)c1OC`
Result: 1

Query: Strictly below 2 score in 229E E protein Inhibition (score)? `N=C(N)NC(=O)/C=C/c1ccccc1F`
Result: 1

Query: Quick check: 229E E protein Inhibition (score) of `COc1ccc(Br)cc1/C=C/C(=O)NC(=N)N` under 2 score?
Result: -1

Query: Input `N=C(N)NC(=O)/C=C/c1ccc(F)c(F)c1` ; condition: 229E E protein Inhibition (score) strictly below 2 score. Does it hold?
Result: 1

Query: Lab log: compare recorded 229E E protein Inhibition (score) with 2 score; is it strictly lower for `N=C(N)NC(=O)/C=C/c1ccc(Cl)c(Cl)c1` ?
Result: -1

----------
compounds and their reported Bacterial assay rank order
# subject_of_test: Vpu protein (Human immunodeficiency virus type 1 group M subtype B)
# condition_label: Table 19b

Query: Find Bacterial assay rank order for `Cc1cccc(/C=C/C(=O)NC(=N)N)c1` on Vpu protein (Human immunodeficiency virus type 1 group M subtype B) and write it down.
Result: 3

Query: Write down the reported Bacterial assay rank order (system: Vpu protein (Human immunodeficiency virus type 1 group M subtype B)) of `N=C(N)NC(=O)c1ccc(-c2ccccc2)cc1`
Result: 7

Query: Recall the reported Bacterial assay rank order of N=C(N)NC(=O)/C=C/c1cccc2ccccc12 [trans-3-(1-napthyl)acryloylguanidine] on Vpu protein (Human immunodeficiency virus type 1 group M subtype B) and write it down.
Result: 5.5

----------
# subject_of_test: 229E-CoV E-protein (Human coronavirus 229E, UniProt P19741)
# procedure_details: Bacterial bio-assay for 229E-CoV E-protein
# condition_label: halo of growth score; E. coli expressing E protein at 37° C.
Hi, to clarify the labels: Fulfilled covers 229E E protein Inhibition (score) from 1 score upward, Not fulfilled covers anything below 1 score.

Reference set (2 entries):
N=C(N)NC(=O)/C=C/c1ccccc1C1CCCCC1	Not fulfilled
COc1ccc2cc(C(=O)NC(=N)N)ccc2c1	Fulfilled

Query: Identify whether the reported 229E E protein Inhibition (score) of the following molecule is 1 score or greater: `Cc1ccccc1/C=C/C(=O)NC(=N)N`
Result: Not fulfilled

Query: Quick check, 229E E protein Inhibition (score) >= 1 score? `CC(C)(C)c1ccccc1/C=C/C(=O)NC(=N)N`
Result: Fulfilled

Query: Given `CC(C)(C)c1cccc(/C=C/C(=O)NC(=N)N)c1` , state whether its 229E E protein Inhibition (score) is at least 1 score.
Result: Fulfilled

Query: In plain terms: is recorded 229E E protein Inhibition (score) at least 1 score for `N=C(NC(=O)CCc1ccccc1)NC(=O)CCc1ccccc1` ?
Result: Not fulfilled

----------
# Test system: porcine respiratory coronavirus (PRCV) strain AR310
# procedure_details: PRCV plaque assay in ST cells
# Format: cell-based
# condition_label: Alphacoronavirus 1; PRCV plaques in ST cells
pEC50: −log10 of the molar value.
Entry flag: label 1 if pEC50 reaches 5; label 0 if it does not.

Recorded results for 3 compounds are shown here.
Cc1cccc(/C=C/C(=O)NC(=N)N)c1	label 1
N=C(N)NC(=O)C1CC1c1ccccc1 (centres unmarked)	label 0
NC(N)=NC(=O)/C=C/c1ccccc1	label 1

Alright, here's another compound for you.
Query: Is the recorded value of pEC50 equal to or greater than 5 for this compound? `N=C(N)NC(=O)Cc1ccc2ccccc2c1`
Result: label 0

----------
# subject_of_test: UniProt P59637
# Assay type: cell-based
Structures can show the parent of a compound that is named as a salt.
measurement_type: SARS E protein Inhibition (score/# of times tested)

// below: answered compounds
N=C(N)NC(=O)/C=C/c1ccc(O)cc1 [(4-Hydroxycinnamoyl)guanidine]	1.63/2 score
COc1ccccc1/C=C/C(=O)NC(=N)N	0.69/2 score

Query: Output SARS E protein Inhibition (score/# of times tested) of `NC(N)=NC(=O)c1ccc(Oc2ccccc2)cc1`
Result: 0.57/2 score

Query: Determine its reported SARS E protein Inhibition (score/# of times tested): N/C(=N\C(=O)c1nc(Cl)c(N)nc1N)NCc1ccccc1 [Benzamil hydrochloride]
Result: 1.32/2 score

Query: Write down SARS E protein Inhibition (score/# of times tested) measured for item `COc1ccc2cc(C(=O)NC(=N)N)ccc2c1`
Result: 3.13/3 score

----------
# Test system: HIV
# Format: cell-based
# condition_label: Table 19b; yes/no
measurement_type: At least 1x log reduction seen in p24 assay?

N=C(N)NC(=O)C1CC1c1ccccc1 (stereo not shown)	no
NC(N)=NC(=O)/C=C/c1ccccc1	yes
NC(N)=NC(=O)c1nc(Cl)c(N2CCCCCC2)nc1N [5-(N,N-hexamethylene)amiloride]	no
N=C(N)NC(=O)/C=C/c1cccc(Br)c1	yes

----------
# Test system: HIV
# Type: cell-based
# condition_label: Drug Conc. 0.625 μM
Each record here notes measured Percent of Positive Control.
# output: numeric value plus its unit

Examples from the recorded data:
NC(N)=NC(=O)c1nc(Cl)c(N2CCCCCC2)nc1N [5-(N,N-hexamethylene)amiloride]	30%
N=C(N)NC(=O)/C=C/c1cccc(Br)c1 [(3-Bromocinnamoyl)guanidine]	116%
N=C(N)NC(=O)/C=C/c1cccc(C(F)(F)F)c1 [3-(trifluoromethyl)cinnamoylguanidine]	38%

Query: Specify Percent of Positive Control for N=C(N)NC(=O)c1ccc(-c2ccccc2)cc1 [4-phenylbenzoylguanidine] and stop.
Result: 10%

----------
# subject_of_test: Vpu protein (Human immunodeficiency virus type 1 group M subtype B, UniProt P05919)
# Sequence (P05919 whole entry): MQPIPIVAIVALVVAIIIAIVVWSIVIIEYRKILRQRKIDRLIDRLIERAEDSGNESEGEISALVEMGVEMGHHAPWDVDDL
# condition_label: Table 19b
Response field class: enum, chosen by comparing Bacterial assay rank order against lowest: < 4; middle: ≥ 4 and < 10; highest: ≥ 10

Check out these entries, answers already filled in.
N=C(NC(=O)CCc1ccccc1)Nc1ccccc1	middle
N=C(N)NC(=O)Cc1ccc2ccccc2c1	highest
N=C(N)NC(=O)/C=C/c1cccc(C(F)(F)F)c1	lowest
COc1ccc2cc(C(=O)NC(=N)N)ccc2c1	middle
N=C(N)NC(=O)/C=C/c1cccc(Br)c1	lowest
N=C(N)NC(=O)C1CC1c1ccccc1 (stereo not drawn)	highest

Now let's try a different one.
Query: Which Bacterial assay rank order category applies to `NC(N)=NC(=O)/C=C/C=C/c1ccccc1` here?
Result: middle

----------
# subject_of_test: SARS-CoV E protein (Severe acute respiratory syndrome coronavirus, UniProt P59637)
# Sequence (P59637 whole entry, looked up): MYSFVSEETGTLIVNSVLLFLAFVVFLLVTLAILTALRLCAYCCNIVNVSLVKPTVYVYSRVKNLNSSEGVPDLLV
# Assay type: cell-based
measurement_type: SARS E protein Inhibition (score/# of times tested)

N=C(N)NC(=O)/C=C/c1ccc2ccccc2c1 [3-(2-napthyl)acryloylguanidine]	3.88/1 score
C/C(=C\c1ccccc1)C(=O)NC(=N)N [(a-Methylcinnamoyl)guanidine, (α-Methylcinnamoyl)guanidine]	0.50/1 score
N=C(N)NC(=O)CCc1ccccc1 [(3-phenylpropanoyl)guanidine]	0.73/5 score

API: the following record is the query input.
Query: Could you please provide reported SARS E protein Inhibition (score/# of times tested) for N=C(N)NC(=O)/C=C/c1cccc(Br)c1 [(3-Bromocinnamoyl)guanidine] ? Thanks!
Result: 3.15/27 score

The reported measurements were obtained from patent US11192863B2.
